Values from ChEMBL document CHEMBL1961873

# Test system: Tyrosine-protein kinase ABL1 (Homo sapiens), P00519 [E255K]
# conditionSet: at 1 µM
For each entry below, report its inhibition value.
Answers are plain numbers, in %.

sampleSmiles	quantityKind	resultValue
CCOc1ccc2c(-c3ccnc(Nc4cc(OC)cc(C(F)(F)F)c4)n3)cnn2n1	inhibition	4.02
c1cnn2ncc(-c3ccnc(NCCCN4CCOCC4)n3)c2c1	inhibition	1.98
CCCNc1cccc(-n2ncc3c(N/N=C/c4ccncc4)ncnc32)c1	inhibition	77.2
O=C(O[C@H]1CN[C@H](C#Cc2cc3ncnc(Nc4ccc5c(ccn5Cc5cc(F)ccc5F)c4)c3s2)C1)N1CCOCC1	inhibition	3.53

From here, focus on the item given below.
Ask: Which inhibition reading was recorded for the compound COc1ccc2ncn(-c3cc(O[C@H](C)c4ccccc4C(F)(F)F)c(C(N)=O)s3)c2c1 ?
Reply: -1.92

* * *

# assaySystem: NT-3 growth factor receptor (Homo sapiens) (UniProt Q16288);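 further: mean TRKC inhibition from the GSK PKIS kinase inhibitor set, with assays run by Nanosyn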
# Sequence (Q16288 32-839 limits assumed): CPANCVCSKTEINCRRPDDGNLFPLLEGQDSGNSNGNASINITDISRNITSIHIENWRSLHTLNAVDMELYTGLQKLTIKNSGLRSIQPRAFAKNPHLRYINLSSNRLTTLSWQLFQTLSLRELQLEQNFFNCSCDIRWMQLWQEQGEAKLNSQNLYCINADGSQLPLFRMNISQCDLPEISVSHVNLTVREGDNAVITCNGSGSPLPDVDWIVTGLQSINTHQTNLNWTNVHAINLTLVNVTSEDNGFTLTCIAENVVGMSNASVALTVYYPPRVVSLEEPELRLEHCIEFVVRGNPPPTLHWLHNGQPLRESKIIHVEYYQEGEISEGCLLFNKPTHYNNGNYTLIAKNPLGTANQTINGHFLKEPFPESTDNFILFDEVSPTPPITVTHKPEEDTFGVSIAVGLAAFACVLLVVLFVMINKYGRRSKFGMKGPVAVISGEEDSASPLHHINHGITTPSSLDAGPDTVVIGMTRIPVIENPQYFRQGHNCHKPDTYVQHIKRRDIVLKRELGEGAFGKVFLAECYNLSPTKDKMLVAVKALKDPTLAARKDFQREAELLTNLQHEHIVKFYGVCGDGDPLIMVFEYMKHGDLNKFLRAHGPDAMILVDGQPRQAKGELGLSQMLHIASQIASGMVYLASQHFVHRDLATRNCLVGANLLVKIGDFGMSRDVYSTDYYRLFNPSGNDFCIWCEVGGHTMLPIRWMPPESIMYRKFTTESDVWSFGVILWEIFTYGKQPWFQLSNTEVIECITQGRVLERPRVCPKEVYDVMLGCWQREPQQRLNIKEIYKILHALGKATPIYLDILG
# conditionSet: at 1 µM
Kindly supply the reported inhibition values for the records listed here.
Numbers only, in %.

Some solved entries appear below for comparison.
compound	resultValue
CNC(=O)c1sc(-n2cnc3cc(OC)c(OC)cc32)cc1OCc1ccccc1C(F)(F)F	6.32
Fc1cccc(COc2ccc(Nc3ncncc3C#Cc3ccccc3)cc2Cl)c1	6.63
CNC(=O)c1cncc(/C=C/c2ccccc2C)c1	5.34
CS(=O)(=O)Nc1ccc(-c2cc(-c3ccccc3)cc(C(N)=O)c2N)cc1	0.08
COC(=O)Nc1nc2ccc(Oc3ccc(NC(=O)Nc4cc(C(F)(F)F)ccc4F)cc3)cc2s1	88.5

I'm hoping you can list inhibition for every compound here, please.
1. Cc1cc(O)cc(C)c1/C=C/c1cncc(C(=O)OC(C)(C)C)c1
2. CC1=C(C(=O)Nc2ccc3[nH]ncc3c2)C(c2ccc(F)cc2)N=C(c2ccc(C(F)(F)F)nc2)N1 (centres undefined)
3. NS(=O)(=O)c1ccc(N/N=C2\C(=O)Nc3ccc(C(=O)NCc4ccncc4)cc32)cc1
4. O=C1Nc2ccccc2/C1=C1\CCc2cc(O)ccc21
5. CCS(=O)(=O)c1ccc(OC)c(Nc2ncc(-c3cccc(C(C)=O)c3)o2)c1
6. O=C(O[C@H]1CN[C@H](C#Cc2cc3ncnc(Nc4ccc5c(ccn5Cc5cc(F)ccc5F)c4)c3s2)C1)N1CCOCC1

Reply:
1. 5.85
2. 3.8
3. 66.2
4. 77.5
5. 29.4
6. 2.92

# return inhibition for each item in the list
1. COc1cc(N2CCN(C(C)C)CC2)ccc1Nc1nc(Nc2cccc(F)c2C(=O)O)c2cc[nH]c2n1
2. CS(=O)(=O)CCNCc1ccc(-c2ccc3ncnc(Nc4ccc(OCc5cccc(C(F)(F)F)c5)cc4)c3c2)o1
3. Cc1nnc(-c2cccc(-c3ccc(C(=O)NCC4CC4)cc3)c2)o1
4. Cc1c2ccc(N(C)c3ccnc(Nc4cccc(S(N)(=O)=O)c4)n3)cc2nn1C

Reply:
1: 4.58; 2: 10.1; 3: 3.95; 4: 11.1

Go through the list and state inhibition for each entry.
1. CCS(=O)(=O)c1ccc(OC)c(Nc2ncc(-c3cccc(F)c3)o2)c1
2. COc1c(C(N)=O)cc(-c2ccc(Cl)cc2)cc1-c1ccc(S(N)(=O)=O)cc1
3. CCCNc1cccc(-n2ncc3c(N/N=C/c4ccncc4)ncnc32)c1
4. CC(C)c1ccc(-c2cc(-c3c[nH]nc3-c3ccccn3)ccn2)cc1
5. CCOc1ccc2c(-c3ccnc(Nc4cc(OC)cc(C(F)(F)F)c4)n3)cnn2n1

Reply:
[48.1, 2.2, 36.8, 1.76, 4.94]

For the 2 compounds below, give their inhibition values.
1. Cc1cc(O)cc(C)c1/C=C/c1cncc(C(N)=O)c1
2. CN1CCC(n2cnc(-c3ccc(F)cc3)c2-c2ccnc(NCCO)n2)CC1

Reply:
0.56
5.91

* * *

# assaySystem: Serine/threonine-protein kinase DCLK2 (Homo sapiens) (UniProt Q8N568);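 further: each value is a mean percent inhibition of DCLK2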
# Sequence (Q8N568 whole entry): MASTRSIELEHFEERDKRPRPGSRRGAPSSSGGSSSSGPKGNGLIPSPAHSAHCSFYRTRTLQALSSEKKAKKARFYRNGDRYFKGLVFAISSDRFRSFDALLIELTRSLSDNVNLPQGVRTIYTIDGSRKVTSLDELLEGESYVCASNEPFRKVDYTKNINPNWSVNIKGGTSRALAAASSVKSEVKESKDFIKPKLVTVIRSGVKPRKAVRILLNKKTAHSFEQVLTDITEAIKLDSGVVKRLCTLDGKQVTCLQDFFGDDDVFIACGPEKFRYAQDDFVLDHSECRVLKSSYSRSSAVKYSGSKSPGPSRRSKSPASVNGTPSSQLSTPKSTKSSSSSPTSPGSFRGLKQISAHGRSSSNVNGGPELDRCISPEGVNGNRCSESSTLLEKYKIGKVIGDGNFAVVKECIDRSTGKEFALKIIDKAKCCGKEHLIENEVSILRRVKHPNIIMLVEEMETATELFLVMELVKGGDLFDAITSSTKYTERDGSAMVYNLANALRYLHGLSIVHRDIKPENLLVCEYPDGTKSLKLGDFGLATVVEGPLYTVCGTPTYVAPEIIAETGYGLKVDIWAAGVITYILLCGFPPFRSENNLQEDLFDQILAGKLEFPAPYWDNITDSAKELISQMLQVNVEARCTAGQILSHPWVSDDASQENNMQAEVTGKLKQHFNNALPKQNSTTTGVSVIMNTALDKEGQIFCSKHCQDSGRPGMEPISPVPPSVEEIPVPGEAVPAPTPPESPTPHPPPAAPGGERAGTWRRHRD
# conditionSet: at 1 µM
Kindly state inhibition for each of the entries shown.
Numbers only, in %.

See these solved cases before continuing.
molecule	measurementUnits	inhibition
COc1cc2c(cc1Nc1nc(Nc3cccc(F)c3C(N)=O)c3cc[nH]c3n1)N(C(=O)CN1CCN(C(C)C)CC1)CC2	%	1.43
Cn1c(-c2nonc2N)nc2cnccc21	%	5.3
CN1CCC(n2cnc(-c3ccc(F)cc3)c2-c2ccnc(NCCO)n2)CC1	%	0.48
OCCCNc1nccc(-c2c(-c3ccc(F)cc3)nn3cc(C(F)(F)F)ccc23)n1	%	2.29
COC(=O)Nc1nc2cc(Oc3ccc(NC(=O)Nc4ccccc4)cc3)ccc2[nH]1	%	5.13
Cc1cc(O)cc(C)c1/C=C/c1cncc(C(N)=O)c1	%	3.35

Each molecule below has a reported value. Please supply its inhibition.
1. CC1=C(C(=O)Nc2ccc3[nH]nc(C)c3c2)C(c2ccc(C(F)(F)F)cc2)CC(=O)N1 (stereo not given)
2. CN(C)CCNC(=O)Nc1ccc(N(C)c2ccnc(Nc3ccc(CS(C)(=O)=O)cc3)n2)cc1
3. COc1cccc(Nc2nccc(-c3cnn4ncccc34)n2)c1

Reply:
1. 0.55
2. 1.2
3. 2.73

Ask: Fill blank: measured inhibition of the molecule N#Cc1ccc2c(-c3ccnc(NC4CC4)n3)c(-c3ccc(F)cc3)nn2c1 is ____.
Reply: 1.17

* * *

# assaySystem: Tyrosine-protein kinase HCK (Homo sapiens);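 further: values are averaged percent inhibition of HCK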
# conditionSet: at 1 µM
// label = Met if inhibition is not less than 9%, otherwise Not met

compound	classification
c1ccc(-c2n[nH]cc2-c2ccnc(-c3ccc(OCCn4ccnc4)cc3)c2)nc1	Met
CC(C)c1ccc(-c2cc(-c3c[nH]nc3-c3ccccn3)ccn2)cc1	Not met
O=C1Nc2ccccc2/C1=C1\CCc2cc(O)ccc21	Met
Cc1c2ccc(N(C)c3ccnc(Nc4cccc(S(N)(=O)=O)c4)n3)cc2nn1C	Met
Fc1ccc(Nc2nccc(-c3c(-c4ccc(C(F)(F)F)cc4)nn4ncccc34)n2)cc1F	Not met

Ask: Does CNC(=O)c1sc(-n2cnc3cc(OC)c(OC)cc32)cc1OCc1ccccc1C(F)(F)F have a reported inhibition of at least 9%?
Reply: Met

Ask: Quick check: does COc1ccccc1-c1cc(/C=C2\C(=O)Nc3ncc(Br)cc32)cc(Br)c1O have inhibition greater than or equal to 9%?
Reply: Met

Ask: Would you say CS(=O)(=O)Nc1ccc(-c2cc(-c3ccccc3)cc(C(N)=O)c2N)cc1 shows inhibition at minimum 9%?
Reply: Not met

Ask: Does COc1cccc(Nc2nccc(-c3cnn4ncccc34)n2)c1 have a reported inhibition of at least 9%?
Reply: Met

Ask: Please check the record O=C(O[C@H]1CN[C@H](C#Cc2cc3ncnc(Nc4ccc5c(cnn5Cc5ccccc5)c4)c3s2)C1)N1CCOCC1 and state if its inhibition is at or above 9%.
Reply: Not met

Ask: Is it the case that CS(=O)(=O)CCNCc1ccc(-c2ccc3ncnc(Nc4ccc(OCc5ccccc5)cc4)c3c2)o1 has inhibition reaching or exceeding 9%?
Reply: Met

Ask: Is it the case that CN(c1ccc(NC(=O)NCCN2CCOCC2)cc1)c1ccnc(Nc2ccc(CS(C)(=O)=O)cc2)n1 has inhibition reaching or exceeding 9%?
Reply: Met

Ask: Kindly determine if inhibition recorded for Cc1cc(O)cc(C)c1/C=C/c1cncc(C(N)=O)c1 is above or exactly 9%.
Reply: Met

Ask: Determine whether measured inhibition meets or exceeds 9% for c1cnn2ncc(-c3ccnc(NCCCN4CCOCC4)n3)c2c1
Reply: Not met

Ask: API: above_or_equal(metric=inhibition, cutoff=9%) for item Cn1c(-c2nonc2N)nc2cnccc21
Reply: Not met

Ask: Given COC(=O)Nc1nc2ccc(Oc3ccc(NC(=O)Nc4cc(C(F)(F)F)ccc4F)cc3)cc2s1 , state whether its inhibition is at least 9%.
Reply: Met

Ask: State whether the measured inhibition reaches 9%, counting equality as reaching it, for COc1cccc(-n2ncc3c(N/N=C/c4ccc(C(=O)NCCN(C)C)cc4)ncnc32)c1
Reply: Met

* * *

# System: Tyrosine-protein kinase ABL1 (Homo sapiens), P00519 [T315I]
# conditionSet: at 1 µM
Everything with inhibition lower than 8% is -1; everything else, including exactly 8%, is 1.

compound	classification
O=C1Nc2ccccc2/C1=C1\CCc2cc(O)ccc21	1
COc1cc(Nc2ncc(-c3ccccc3)o2)cc(OC)c1	1
CS(=O)(=O)CCNCc1ccc(-c2ccc3ncnc(Nc4ccc(OCc5ccccc5)cc4)c3c2)o1	-1

Ask: Is the recorded value of inhibition equal to or greater than 8% for this compound? COc1ccccc1-c1cc(/C=C2\C(=O)Nc3ncc(Br)cc32)cc(Br)c1O
Reply: -1

Ask: Does inhibition meet or surpass 8% for CCS(=O)(=O)c1ccc(OC)c(Nc2ncc(-c3cccc(C(C)=O)c3)o2)c1 ?
Reply: 1

Ask: Hi, just wondering whether CN(C)CCNC(=O)Nc1ccc(N(C)c2ccnc(Nc3ccc(CS(C)(=O)=O)cc3)n2)cc1 shows inhibition of 8% or higher.
Reply: 1

Ask: Has OCCCNc1nccc(-c2c(-c3ccc(F)cc3)nn3cc(C(F)(F)F)ccc23)n1 a recorded inhibition greater than or equal to 8%?
Reply: -1

Ask: inhibition >= 8% for COc1c(C(N)=O)cc(-c2ccc(Cl)cc2)cc1-c1ccc(S(N)(=O)=O)cc1 ?
Reply: -1
